molecular target: recombinant human Mcl-1 (residues 171-327) / Bim interaction (Homo sapiens (Human)); assay: biochemical; format: binding; details: TR-FRET, Mcl-1(171-327) / biotin-Bim (51-76); read-out: Mcl-1 HTRF IC50
Sequence (Q07820 171-327): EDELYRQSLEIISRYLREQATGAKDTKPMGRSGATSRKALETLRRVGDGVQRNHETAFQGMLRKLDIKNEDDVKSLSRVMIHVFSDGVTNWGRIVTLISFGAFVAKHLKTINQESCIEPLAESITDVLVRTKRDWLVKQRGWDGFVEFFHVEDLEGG
Metric name: log10(IC50) (log10 of the value in nM)
# log10 transformed; quantity=IC50; unit=nM

Sample answers from the record:
Compound	log10(IC50)
CCOP(=O)(OCC)C(F)(F)[C@]1(O)/C=C/C[C@H](C)[C@@H](C)S(=O)(=O)NC(=O)c2ccc3c(c2)N(C[C@@H]2CC[C@H]21)C[C@@]1(CCCc2cc(Cl)ccc21)CO3 [Example 100067]	0.00
CC[C@@H]1CCCC[C@@]2(COCC(=O)O2)[C@@H]2CC[C@H]2CN2C[C@@]3(CCCc4cc(Cl)ccc43)COc3ccc(cc32)C(=O)NS1(=O)=O	0.22
C[C@@H]1[C@@H](C)CCC[C@@]2(CC(N(C)C)=NO2)[C@@H]2CC[C@H]2CN2C[C@@]3(CCCc4cc(Cl)ccc43)COc3ccc(cc32)C(=O)NS1(=O)=O	-0.11
C[C@@H]1[C@@H](C)CCC[C@@]2(COCCN2)[C@@H]2CC[C@H]2CN2C[C@@]3(CCCc4cc(Cl)ccc43)COc3ccc(cc32)C(=O)NS1(=O)=O	-0.04
CO[C@]1(COCCN2CCOCC2)/C=C/C[C@H](C)[C@@H](C)S(=O)(=O)NC(=O)c2ccc3c(c2)N(C[C@@H]2CC[C@H]21)C[C@@]1(CCCc2cc(Cl)ccc21)CO3	-0.84

Briefly, log10(IC50) measured for C[C@@H]1[C@@H](C)C/C=C/[C@@](O)(c2cnc(Cl)n2C)[C@@H]2CC[C@H]2CN2C[C@@]3(CCCc4cc(Cl)ccc43)COc3ccc(cc32)C(=O)NS1(=O)=O (single isomer, unassigned) : -0.76

Briefly, log10(IC50) measured for C[C@@H]1[C@@H](C)CCC[C@@](O)(CCN2CCOCC2)[C@@H]2CC[C@H]2CN2C[C@@]3(CCCc4cc(Cl)ccc43)COc3ccc(cc32)C(=O)NS1(=O)=O [Example 100095] : -0.83

Briefly, log10(IC50) measured for C[C@@H]1[C@@H](C)C/C=C/[C@](O)(c2ncnn2C)[C@@H]2CC[C@H]2CN2C[C@@]3(CCCc4cc(Cl)ccc43)COc3ccc(cc32)C(=O)NS1(=O)=O : -0.28

Briefly, log10(IC50) measured for CO[C@]1(c2nccn2C)/C=C/C[C@H](C)[C@@H](C)S(=O)(=O)NC(=O)c2ccc3c(c2)N(C[C@@H]2CC[C@H]21)C[C@@]1(CCCc2cc(Cl)ccc21)CO3 (single isomer, unassigned) : 0.02

Briefly, log10(IC50) measured for CO[C@@]1(Cc2ncc(C)o2)/C=C/C[C@H](C)[C@@H](C)S(=O)(=O)NC(=O)c2ccc3c(c2)N(C[C@@H]2CC[C@H]21)C[C@@]1(CCCc2cc(Cl)ccc21)CO3 : -0.54

Recorded values, source patent US10821115B2.
